Target: human PDE2A1 (Homo sapiens, UniProt O00408)
Construct: GST; purchased BPS Bioscience (San Diego, Calif.) 60020; host or cells: insect cells
Sequence (O00408 1-920 isoform O00408-2): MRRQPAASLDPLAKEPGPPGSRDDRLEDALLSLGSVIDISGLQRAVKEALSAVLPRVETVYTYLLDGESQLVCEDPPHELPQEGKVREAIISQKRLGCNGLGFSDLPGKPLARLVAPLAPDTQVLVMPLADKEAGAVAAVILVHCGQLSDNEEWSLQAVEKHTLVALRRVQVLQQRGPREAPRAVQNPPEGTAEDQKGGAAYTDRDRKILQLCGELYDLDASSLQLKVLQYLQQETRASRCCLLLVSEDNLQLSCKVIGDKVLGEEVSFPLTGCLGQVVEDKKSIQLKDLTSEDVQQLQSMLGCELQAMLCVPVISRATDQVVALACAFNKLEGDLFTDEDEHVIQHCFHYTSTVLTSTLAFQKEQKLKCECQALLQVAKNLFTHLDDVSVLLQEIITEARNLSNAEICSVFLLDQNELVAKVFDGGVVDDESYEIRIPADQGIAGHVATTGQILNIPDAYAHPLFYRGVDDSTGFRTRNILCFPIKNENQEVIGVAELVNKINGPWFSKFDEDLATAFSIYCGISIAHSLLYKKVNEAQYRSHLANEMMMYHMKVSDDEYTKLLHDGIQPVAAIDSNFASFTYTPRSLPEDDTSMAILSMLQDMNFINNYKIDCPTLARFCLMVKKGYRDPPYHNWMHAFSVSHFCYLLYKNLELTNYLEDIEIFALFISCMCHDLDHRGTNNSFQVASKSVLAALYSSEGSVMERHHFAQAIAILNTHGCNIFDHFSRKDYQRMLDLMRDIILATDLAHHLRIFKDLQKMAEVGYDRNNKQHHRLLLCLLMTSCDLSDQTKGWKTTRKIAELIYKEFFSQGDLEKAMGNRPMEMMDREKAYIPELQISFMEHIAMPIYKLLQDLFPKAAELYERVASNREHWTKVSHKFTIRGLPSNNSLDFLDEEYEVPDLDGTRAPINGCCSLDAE
Test: IMAP FP PDE assay, human PDE2A1
Format: biochemical
Details: Lab B; read-out: Human PDE2 Ki (nM) Lab B
readout kind: Ki (nM)

Below are worked cases with known answers.
Cc1nc2c(c(CC(F)(F)F)nn2C(C)c2ccc(OC(F)(F)F)cc2)c(=O)[nH]1 (single isomer, unassigned) [Example 67] = 6.7
Cc1nc2c(c(CO)nn2C(C)c2ccc(C(F)(F)F)cc2I)c(=O)[nH]1 (single isomer, unassigned) [Example 141] = 12
Cc1nc2c(c(CO)nn2C(c2ccc(C(F)(F)F)c(F)c2)C2(C)CC2)c(=O)[nH]1 (single isomer, unassigned) [Example 14] = 2.4

A: Cc1nc2c(c(-c3ccn[nH]3)nn2C(C)c2ccc(C(F)(F)F)cc2)c(=O)[nH]1 (single isomer, unassigned) [Example 235]
B: Cc1nc2c(c(CF)nn2C(c2ccc(C(F)(F)F)cc2)C(C)C)c(=O)[nH]1 (single isomer, unassigned) [Example 213]
C: Cc1nc2c(c(CF)nn2C(c2ccc(C(F)(F)F)c(F)c2)C2CC2)c(=O)[nH]1 (single isomer, unassigned) [Example 226]
D: Cc1nc2c(c(CO)nn2C(C)c2ccc(C(C)(F)F)cc2)c(=O)[nH]1 (single isomer, unassigned) [Example 117]
E: Cc1nc2c(c(CO)nn2C(C)c2ccc(C(F)(F)F)c(F)c2)c(=O)[nH]1 (centres unmarked) [Example 1]
# rank by Ki, ascending (min first) # respond with the labels, arranged in the requested order
B, C, D, E, A
(B: 0.19 nM, C: 0.32 nM, D: 1.1 nM, E: 5.3 nM, A: 25 nM)
